System: Pseudomonas aeruginosa
Assay: Antibacterial activity against Pseudomonas aeruginosa assessed as diameter of inhibition zone at 12.5 ug/well after 24 hrs by agar well diffusion method
Format: functional
Settings: read-out: DIZ
readout: zone of inhibition at 12.5 µg/disc
Please make sure the unit comes right after the number.

Solved entries:
{"compound": "Cc1cc(SCc2nnc(-c3ccccc3)o2)nc(SCc2nnc(-c3ccccc3)o2)n1", "result": "7 mm"}
{"compound": "Cc1cc(SCc2nnc(-c3ccc([N+](=O)[O-])cc3)o2)nc(SCc2nnc(-c3ccc([N+](=O)[O-])cc3)o2)n1", "result": "11 mm"}
{"compound": "O=C(N[C@H](CO)[C@H](O)c1ccc([N+](=O)[O-])cc1)C(Cl)Cl [CHLORAMPHENICOL]", "result": "25 mm"}
{"compound": "Cc1cc(SCc2nnc(-c3ccc(Br)cc3)n2N)nc(SCc2nnc(-c3ccc(Br)cc3)n2N)n1", "result": "16 mm"}
{"compound": "Cc1cc(SCc2nnc(-c3ccc(Cl)cc3)s2)nc(SCc2nnc(-c3ccc(Cl)cc3)s2)n1", "result": "26 mm"}
{"compound": "Cc1cc(SCc2nnc(-c3ccc(Br)cc3)s2)nc(SCc2nnc(-c3ccc(Br)cc3)s2)n1", "result": "19 mm"}

Please turn your attention to the following entry.
I'd like to know its zone of inhibition at 12.5 µg/disc. The compound in question is `Cc1cc(SCc2nnc(-c3ccccc3)s2)nc(SCc2nnc(-c3ccccc3)s2)n1`
15 mm
